Data credit: patent US11524968B2

- target: JAK1 (Homo sapiens (Human), UniProt P23458)
- Sequence (P23458 whole entry): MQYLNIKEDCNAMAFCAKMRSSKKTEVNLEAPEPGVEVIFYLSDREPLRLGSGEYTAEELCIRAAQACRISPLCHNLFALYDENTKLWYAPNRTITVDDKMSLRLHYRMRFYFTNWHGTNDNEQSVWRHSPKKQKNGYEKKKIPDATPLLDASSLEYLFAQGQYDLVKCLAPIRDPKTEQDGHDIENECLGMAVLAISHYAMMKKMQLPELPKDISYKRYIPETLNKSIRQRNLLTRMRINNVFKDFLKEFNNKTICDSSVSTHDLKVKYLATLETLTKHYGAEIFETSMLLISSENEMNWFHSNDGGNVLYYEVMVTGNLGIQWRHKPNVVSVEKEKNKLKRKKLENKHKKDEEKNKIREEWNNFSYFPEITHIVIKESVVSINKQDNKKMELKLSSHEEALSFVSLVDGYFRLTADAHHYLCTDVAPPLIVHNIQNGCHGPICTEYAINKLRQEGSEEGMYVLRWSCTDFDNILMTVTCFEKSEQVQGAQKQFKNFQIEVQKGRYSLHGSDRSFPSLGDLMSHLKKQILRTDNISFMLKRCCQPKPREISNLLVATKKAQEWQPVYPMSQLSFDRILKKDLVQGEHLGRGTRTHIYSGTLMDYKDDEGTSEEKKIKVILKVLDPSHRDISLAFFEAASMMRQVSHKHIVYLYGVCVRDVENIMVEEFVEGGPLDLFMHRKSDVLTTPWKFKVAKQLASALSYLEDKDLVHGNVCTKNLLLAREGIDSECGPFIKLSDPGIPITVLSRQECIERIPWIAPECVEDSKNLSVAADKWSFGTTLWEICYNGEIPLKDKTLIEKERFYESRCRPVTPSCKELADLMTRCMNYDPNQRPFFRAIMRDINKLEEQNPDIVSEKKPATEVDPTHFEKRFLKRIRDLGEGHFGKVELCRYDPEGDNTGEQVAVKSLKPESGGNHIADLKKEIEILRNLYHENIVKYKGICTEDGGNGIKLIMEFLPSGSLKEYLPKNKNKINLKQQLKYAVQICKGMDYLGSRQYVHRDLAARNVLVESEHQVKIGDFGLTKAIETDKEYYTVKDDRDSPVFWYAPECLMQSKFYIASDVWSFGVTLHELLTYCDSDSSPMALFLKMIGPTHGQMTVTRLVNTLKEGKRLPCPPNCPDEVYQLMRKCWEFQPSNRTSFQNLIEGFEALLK
- protocol-description: Analysis of JAK1 activity inhibition ability (ADP-Glo Kinase Assay)
- Assay type: biochemical
- conditions-used: JAK1 enzyme, ADP-Glo luminescence, ATP 250 uM, IRS-itide substrate, 30° C. 40 minutes; read-out: IC50
pIC50: −log10 of the molar value.

- compound: "O=C(Nc1cc(C2=CCN(C(=O)CN3CCS(=O)(=O)CC3)CC2)c2cc[nH]c2n1)C1CC1"
  pIC50: "6.70 to 7.70"
- compound: "CN(C)S(=O)(=O)c1ccc(S(=O)(=O)Nc2ccc(-c3cc(NC(=O)C4CC4)nc4[nH]ccc34)cc2)cc1"
  pIC50: "6.70 to 7.70"
- compound: "O=C(Nc1cc(-c2ccc(OS(=O)(=O)c3ccc(F)cc3)cc2)c2cc[nH]c2n1)C1CC1"
  pIC50: "< 6.70"
- compound: "CCCS(=O)(=O)N1CCN(C(=O)Cc2ccc(-c3cc(NC(=O)C4CC4)nc4[nH]ccc34)cc2)CC1"
  pIC50: "6.70 to 7.70"
- compound: "O=C(Nc1cc(C2=CCC(NC3CN(C(=O)c4ccnc(F)c4)C3)CC2)c2cc[nH]c2n1)C1CC1 (stereo not shown)"
  pIC50: "< 6.70"
- compound: "O=C(Nc1cc(-c2ccc(CC(=O)N3CCNCC3)cc2)c2cc[nH]c2n1)C1CC1"
  pIC50: "< 6.70"
- compound: "O=C(Nc1cc(-c2ccc(NS(=O)(=O)c3ccc(Br)cc3)cc2)c2cc[nH]c2n1)C1CC1"
  pIC50: "6.70 to 7.70"

###

- target: JAK1 (Homo sapiens (Human))
- protocol-description: Analysis of JAK1 activity inhibition ability (ADP-Glo Kinase Assay)
- Format: biochemical
- conditions-used: JAK1 enzyme, ADP-Glo luminescence, ATP 250 uM, IRS-itide substrate, 30° C. 40 minutes; read-out: IC50
pIC50: −log10 of the molar value.
experimental-readout: pIC50

- molecule: "CCS(=O)(=O)N1C2C=C(c3cc(NC(=O)C4CC4)nc4[nH]ccc34)CC1CC2 (stereo not shown)"
  result: "6.70 to 7.70"
- molecule: "CC1(CN2CC=C(c3cc(NC(=O)C4CC4)nc4[nH]ccc34)CC2)COC1"
  result: "< 6.70"
- molecule: "CCCS(=O)(=O)Nc1cc(F)c(-c2cc(NC(=O)C3CC3)nc3[nH]ccc23)cc1F"
  result: "> 7.70"
- molecule: "CN1CCN(C(=O)Cc2ccc(-c3cc(NC(=O)C4CC4)nc4[nH]ccc34)cc2)CC1"
  result: "6.70 to 7.70"
- molecule: "CC(C)Oc1ccc(S(=O)(=O)Nc2ccc(-c3cc(NC(=O)C4CC4)nc4[nH]ccc34)cc2)cc1"
  result: "> 7.70"
- molecule: "C=CCS(=O)(=O)Oc1ccc(-c2cc(NC(=O)C3CC3)nc3[nH]ccc23)cc1"
  result: "> 7.70"
- molecule: "CCCS(=O)(=O)Nc1ccc(-c2cc(NC(=O)C3CC3)nc3[nH]ccc23)c(C)c1F"
  result: "6.70 to 7.70"
- molecule: "CC1CN(C(=O)CCl)CC=C1c1cc(NC(=O)C2CC2)nc2[nH]ccc12 (stereo not shown)"
  result: "6.70 to 7.70"
- molecule: "N#CCC(=O)N1CCN(c2nc(NC(=O)C3CC3)nc3[nH]ccc23)CC1"
  result: "< 6.70"
- molecule: "CC1CN(C(=O)Cc2cccs2)CC=C1c1cc(NC(=O)C2CC2)nc2[nH]ccc12 (stereo not shown)"
  result: "6.70 to 7.70"
- molecule: "O=C(Nc1cc(N2CCN(C(=O)NCC(F)(F)F)CC2)c2cc[nH]c2n1)C1CC1"
  result: "< 6.70"
- molecule: "O=C(Nc1cc(-c2ccc(NC3CCN(C(=O)Nc4ccccc4)CC3)c(F)c2)c2cc[nH]c2n1)C1CC1"
  result: "6.70 to 7.70"
- molecule: "CC(C)(C)OC(=O)N1CC=C(c2cc(NC(=O)C3CC3)nc3[nH]ccc23)CC1"
  result: "6.70 to 7.70"
- molecule: "Cc1nnn(Cc2ccc(-c3cc(NC(=O)C4CC4)nc4[nH]cnc34)cc2)n1"
  result: "< 6.70"
- molecule: "O=C(Nc1cc(-c2ccc(NS(=O)(=O)CCCF)cc2)c2cc[nH]c2n1)C1CC1"
  result: "> 7.70"
- molecule: "CCc1cc(-c2cc(NC(=O)C3CC3)nc3[nH]ccc23)ccc1NS(=O)(=O)C1CC1"
  result: "> 7.70"
